target: T1, human tissue factor (TF), membrane-bound on cells (human, UniProt P13726 33-295); assay: FACS, Bx-PC3 cells
T1 construct: whole, on cells; also called cellular TF
Would you kindly list pEC50 for each of these binders?
Quick note: pEC50 values are minus log10 of concentrations in mol/L.

*Q* What does the data say about its pEC50? Entry: anti-TF HuMab 109 (antibody, V domains shown, Human monoclonal antibody from HuMab mice) VH: QVQLVESGGGVVQPGRSLRLSCPASGFTFSIYAMHWVRQAPGKGLEWVAVVSNDGYNKYYADSVKGRFTISRDNSKDTLYLQMNSLRAEDTAVYYCARDGQLGRGYFDYWGQGTLVTVSS VL: EIVLTQSPATLSLSPGERAILSCRASQSVSSYLAWYQQKPGQAPRLLIYDASNRATGIPARFSGSGSGTDFTLTISSLEPEDFAVYYCQQRSNWPLTFGGGTKVEIK
*A* 8.39

*Q* # input binder: anti-TF HuMab 011 (antibody, V domains shown, Human monoclonal antibody from HuMab mice; also called HuMab-TF-11) VH: EVQLLESGGGLVQPGGSLRLSCAASGFTFSNYAMSWVRQAPGKGLEWVSSISGSGDYTYYTDSVKGRFTISRDNSKNTLYLQMNSLRAEDTAVYYCARSPWGYYLDSWGQGTLVTVSS VL: DIQMTQSPPSLSASAGDRVTITCRASQGISSRLAWYQQKPEKAPKSLIYAASSLQSGVPSRFSGSGSGTDFTLTISSLQPEDFATYYCQQYNSYPYTFGQGTKLEIK ; wanted: its pEC50
*A* 9.00

*Q* # input binder: anti-TF HuMab 003 (antibody, V domains shown, Human monoclonal antibody from HuMab mice; also called HuMab-TF-003) VH: QVQLVQSGAEVKKPGSSVKVSCKAPRGTFSYYTISWVRQAPGQGLEWMGRIIPILGVANYAQKFQGRVTITADKSTSTAYMELSSLRSEDTAVYYCAREGDRRYFDYWGQGTLVTVSS VL: AIQLTQSPSSLSASVGDRVTITCRASQDISSALAWYQQKPGKAPKLLIYDASILESGVPSRFSGSGSGTDFTLTISSLQPEDFATYYCQQFNSYPLTFGGGTKVEIK ; wanted: its pEC50
*A* 8.30

*Q* Any idea what its pEC50 is? The binder is anti-TF HuMab 092-A09 (antibody, V domains shown, Human monoclonal antibody from HuMab mice) VH: EVQLLESGGGLVQPGGSLRLSCAASGFTFNNYAMSWVRQAPGKGLEWVSSISGSGGRTYYADSVKGRFTISRDNSKNTLFLQMNSLRAEDTAVYYCAKTPWGYYFDYWGQGTLVTVSS VL: DIQMTQSPSSLSASVGDRVTITCRASQGISSRLAWYQQKPEKAPKSLIYAASSLQSGVPSRFSGSGSGTDFTLTISSLQPEDFATYYCQQYNSYPYTFGQGTKLEIK
*A* 9.08

*Q* # input binder: anti-TF HuMab 013 (antibody, V domains shown, Human monoclonal antibody from HuMab mice; also called HuMab-TF-13) VH: EVQLVQSGAEVKKPGESLKISCKGSGYSFTSYWIGWVRQMPGKGLEWMGIIYPGDSDTRYSPSFQGQVTISADKSISTAYLQWSSLKASDTAMYYCARIHRGAGYSSSWPGAFDIWGQGTMVTVSS VL: DIQMTQSPSSLSASVGDRVTITCRASQGISRWLAWYQQKPEKAPKSLIYAASSLQSGVPSRFSGSGSGTDFTLTISSLQPEDFATYYCQQYDSDPITFGQGTRLEIK ; wanted: its pEC50
*A* 8.73
